study_system: Cytochrome P450 2C8 (Homo sapiens, UniProt P10632)
Sequence (P10632 whole entry): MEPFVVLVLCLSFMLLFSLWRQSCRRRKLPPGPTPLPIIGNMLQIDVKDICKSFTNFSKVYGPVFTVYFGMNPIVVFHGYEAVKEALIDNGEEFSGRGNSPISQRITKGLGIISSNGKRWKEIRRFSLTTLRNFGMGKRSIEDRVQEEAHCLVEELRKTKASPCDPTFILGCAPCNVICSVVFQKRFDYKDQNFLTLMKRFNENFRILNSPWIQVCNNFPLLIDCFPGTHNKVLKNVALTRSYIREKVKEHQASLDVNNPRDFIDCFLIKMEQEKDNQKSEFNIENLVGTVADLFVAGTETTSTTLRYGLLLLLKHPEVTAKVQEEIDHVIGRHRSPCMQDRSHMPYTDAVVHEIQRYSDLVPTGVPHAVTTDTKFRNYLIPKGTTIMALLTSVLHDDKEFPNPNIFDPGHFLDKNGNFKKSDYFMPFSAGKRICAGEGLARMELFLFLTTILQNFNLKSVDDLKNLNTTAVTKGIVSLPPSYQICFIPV
pIC50: −log10 of the molar value.
value_type: pIC50

Find the measured pIC50 of CCC[C@H]1N(C(=O)c2cnccc2C(F)(F)F)CCC[C@@]1(Oc1csc(C(F)(F)F)c1)C(=O)N1CCN(c2ccccc2OCCCC(=O)O)CC1 and report it.
< 4.30
